This section presents compounds with their documented TGI values.
- Tested on: OVCAR-5 ovarian
- Assay Summary: NCI tumour cell line growth inhibition, 48 h

COC1C(O)CC(OC2CC(OC3CC(O[C@@H]4C(=O)c5c(cc6cc(OC7CC(OC8CC(O)C(O)C(C)O8)C(O)C(C)O7)c(C)c(O)c6c5O)CC4[C@H](OC)C(=O)O)OC(C)C3O)OC(C)C2O)OC1C (some centres not stated) yielded TGI of > 33.3 µM

COC(=O)c1ccc2c(c1)C(=O)c1c-2n(CCCCl)c(=O)c2cc([N+](=O)[O-])ccc12 yielded TGI of > 100 µM

CCN(CC)CCCC(C)Nc1ccnc2cc(Cl)ccc12 (configuration not stated) yielded TGI of > 100 µM

CC(C)N(O)C(=N)c1ccccc1 yielded TGI of > 100 µM

N#CCc1c(-c2ccccc2)n(S(=O)(=O)c2ccccc2)c2ccccc12 yielded TGI of > 100 µM

Next:
COc1cc2c3cc1Oc1c(O)c(OC)cc4c1C(Cc1ccc(O)c(c1)Oc1ccc(cc1)CC3N(C)CC2)N(C)CC4 (configuration not stated) yielded TGI of 38.4 µM

CC(=O)OC1CCC2(C)C(CCC3C2CC(=O)C2(C)C3CC(N3CC3)C2C(C)=O)C1 (configuration not stated) yielded TGI of > 100 µM

CCOC(=O)C(=O)C=P(c1ccccc1)(c1ccccc1)c1ccccc1 yielded TGI of > 100 µM

NCCSc1cc(O)c2c(c1N)C(=O)c1ccccc1C2=O yielded TGI of > 100 µM

Cc1nc2c(c(N3CCCc4ccccc43)n1)CCC2 yielded TGI of > 100 µM

COc1ccc(/C=C/C(=O)/C=C/c2ccc(OC)cc2OC)c(OC)c1 yielded TGI of 36.5 µM

CC12C3C4C1C1C2C3C41CO (configuration not stated) yielded TGI of > 100 µM

CC(=O)/C(=C/c1ccccc1)C(=O)CC(C)C yielded TGI of 41.6 µM

COc1cc(C2c3cc4c(cc3[C@@H](Nc3cccc(CO)c3)C3COC(=O)[C@H]23)OCO4)cc(OC)c1O (some centres not stated) yielded TGI of 11.5 µM

###

- System: KM12 colon
- Assay Summary: NCI tumour cell line growth inhibition, 48 h
This section presents compounds with their documented GI50 values.

COC(=O)c1ccc2c(c1)C(=O)c1c-2n(CCCCl)c(=O)c2cc([N+](=O)[O-])ccc12 yielded GI50 of > 100000 nM

Next:
CCCCCCCCCCCCCCCC1=NCCN1 yielded GI50 of 1830 nM

CSc1c(C2=C(c3cn(C)c4ccccc34)C(=O)NC2=O)c2ccccc2n1C yielded GI50 of 843 nM

###

This section presents molecules with their documented TGI values.
- Tested on: SF-539 CNS
- Assay Summary: NCI tumour cell line growth inhibition, 48 h

I looked up C=C(CO)CC(O)c1cc(OC)ccc1OC (configuration not stated) and its TGI for SF-539 CNS was > 100 µM

I looked up CCc1c2c(cc3c1CC1(C3)Cc3cc4c(c(C(=O)OC)c3C1)CCCC4)CCCC2 (configuration not stated) and its TGI for SF-539 CNS was > 100 µM

I looked up C=C(CN1CCN(c2ccc(C(F)(F)F)cc2)CC1)c1ccc(C(=O)Nc2ccccc2N)cc1 and its TGI for SF-539 CNS was > 100 µM
